# SUBJECT_OF_TEST: Homeobox protein Hox-A13 (Mus musculus)
# ASSAY_INFO: inhibitors of HoxA13-DNA binding, primary screen, biochemical, fluorescence polarization, labeled oligonucleotide (AID 1185)
# CONDITION_PARAMETERS: 15 min, higher = more signal, called active from +8 up or from −8 down
ENDPOINT: z-score
Form field (numeric): enter value without unit.

z-score for "CC(C)=CCCC(C)=CCON=C1C[C@@H](O)[C@@H](O)[C@@H]2[C@@H]3C(=O)N(Cc4ccc5c(c4)OCO5)C(=O)[C@@H]3CC[C@H]12" is -4.72

z-score for "CCCC[C@H]1CN2[C@@H](CC[C@@H](C)[C@@H]2c2ccc(Br)cc2)C(=O)O1" is -3.59

z-score for "COC(=O)[C@@H]1CC[C@H](C)[C@@H](c2ccc(C)cc2)N1C(=O)c1ccc(C=NOC[C@@H](O)[C@H]2O[C@@H]3OC(C)(C)O[C@@H]3[C@H]2O)cc1" is -6.03

z-score for "CCOC(=O)NN=C1C[C@@H](O)[C@@H](O)[C@@H]2[C@@H]3C(=O)N(CC)C(=O)[C@@H]3CC[C@H]12" is 0.368

z-score for "C=CC[C@@H]1C=C[C@H](ON=C[C@@H](NS(=O)(=O)c2ccc(C)cc2)[C@H](C)C=CCC(=O)OC)[C@@H](CO)O1" is -4.66

z-score for "COc1ccc(O[C@H]2C=C[C@@H](c3ccccc3)O[C@@H]2COC(=O)CCC(C)=NOC[C@@H](O)COCc2ccco2)cc1" is -5.52

z-score for "CC#CCOCCC=C1c2ccccc2[C@@H](OC)[C@@H]1C" is -3
